Target: T1, FZD3 cysteine-rich domain (CRD), MYC-tagged and GPI-anchored on CHO cells (human, UniProt Q9NPG1 24-150, GPI anchor)
T1 construct: domain: cysteine-rich domain (CRD); also called FZD3 CRD; CHO-myc-FZDGPI; not shown: MYC tag and GPI anchor signal
T1 sequence (looked up): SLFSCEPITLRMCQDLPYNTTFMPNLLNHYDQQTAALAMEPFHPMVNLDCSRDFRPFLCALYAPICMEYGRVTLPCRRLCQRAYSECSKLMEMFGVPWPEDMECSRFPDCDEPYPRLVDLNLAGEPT
Assay: immunofluorescence, CHO-CRD cells

# binder, binding result
measured = [
    ("Fab-2925 (Fab, V domains shown, Fab; also called Fv-2925) VH: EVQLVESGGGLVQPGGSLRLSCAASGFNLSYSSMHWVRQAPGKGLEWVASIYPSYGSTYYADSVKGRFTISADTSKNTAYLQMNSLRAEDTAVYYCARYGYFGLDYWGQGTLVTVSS VL: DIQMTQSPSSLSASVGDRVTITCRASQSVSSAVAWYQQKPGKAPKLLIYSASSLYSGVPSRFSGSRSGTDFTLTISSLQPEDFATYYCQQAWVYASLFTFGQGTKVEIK", "no binding"),
    ("Fab-2900 (Fab, V domains shown, Fab; also called Fv-2900) VH: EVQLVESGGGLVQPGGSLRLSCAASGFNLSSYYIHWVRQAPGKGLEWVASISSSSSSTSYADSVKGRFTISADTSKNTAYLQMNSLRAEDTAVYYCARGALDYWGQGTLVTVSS VL: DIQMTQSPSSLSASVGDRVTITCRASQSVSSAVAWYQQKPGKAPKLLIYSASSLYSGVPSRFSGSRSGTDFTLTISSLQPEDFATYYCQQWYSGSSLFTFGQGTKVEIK", "no binding"),
    ("Fab-2906 (Fab, V domains shown, Fab; also called Fv-2906) VH: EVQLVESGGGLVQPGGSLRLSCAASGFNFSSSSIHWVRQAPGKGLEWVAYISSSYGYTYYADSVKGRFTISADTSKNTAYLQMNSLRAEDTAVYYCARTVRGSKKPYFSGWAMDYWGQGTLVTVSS VL: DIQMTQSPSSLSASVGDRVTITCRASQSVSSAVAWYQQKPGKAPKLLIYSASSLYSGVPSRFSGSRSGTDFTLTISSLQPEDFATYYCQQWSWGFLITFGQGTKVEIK", "no binding"),
]
